Hey, just so you know, these numbers are from BindingDB's records for doi:10.7270/Q2H70D5W.

# TARGET: Gag-Pol polyprotein (Human immunodeficiency virus type 1 group M subtype B (isolate HXB2), UniProt P04585)
# PROTOCOL DESCRIPTION: HIV-1 RT RNase H inhibitor potency, dose response, biochemical, probe assessment (AID 652)
# MEASUREMENT PARAMETERS: pH 8; 23 °C
MEASURED PROPERTY: IC50 (µM)
# value in µM; strip the unit string

Please look up its IC50: COC(=O)c1ccc2c(=O)n(Cc3ccco3)c(SCC(=O)Nc3ccccc3Cl)nc2c1 4.65

Please look up its IC50: N#Cc1nc(-c2ccc(OCc3ccc(Cl)cc3)cc2)oc1NCc1cccnc1 12.9

---
Please look up its IC50: Cc1cc(C(=O)CSc2nnc(-c3ccc(OC(F)F)cc3)o2)c(C)n1Cc1cccs1 1.88

Please look up its IC50: Cc1sc(-n2c(C)cc(C=Nn3cnnc3)c2C)c(C#N)c1C 2.22

----------
Quick list: IC50 per entry.
# TARGET: Gag-Pol polyprotein (Human immunodeficiency virus type 1 group M subtype B (isolate HXB2), UniProt P04585)
# PROTOCOL DESCRIPTION: HIV-1 RT RNase H inhibitor potency, dose response, biochemical, probe assessment (AID 652)
# MEASUREMENT PARAMETERS: pH 8; 23 °C
# value in µM; strip the unit string

Solved cases (8 shown):
Please look up its IC50: O=c1ccc2cc3c([nH]c4ccc(Br)cc43)oc-2c1O 1.49

Please look up its IC50: OCCN1CCN(C(=S)c2ccc(Cl)c(Cl)c2)CC1 3.2

Please look up its IC50: Cc1ccc(-n2c(N)c(C(=O)N3CCOCC3)sc2=S)cc1 4.9

Please look up its IC50: Cc1ccc2c(c1C)NC(C(=O)O)C1CC=CC21 (stereo unspecified) 1.03

Please look up its IC50: Cn1ccnc1P(=S)(c1nccn1C)N1CCOCC1 11.8

Please look up its IC50: N#CC1C(=N)SC(=N)C(C#N)C1c1ccnc2ccccc12 (stereo unspecified) 13.7

Please look up its IC50: COc1cc(C2CC(=O)N3CN(c4ccccc4C)CSC3=C2C#N)cc(OC)c1OC (stereo unspecified) 4.1

Please look up its IC50: Cc1cccc(NC(=O)Cn2c(C)c(C#N)c3ccccc32)c1C 29

---
Please look up its IC50: Cc1cc(C)c(NC(=O)Cn2c(=O)n(Cc3ccco3)c(=O)c3ccccc32)c(C)c1 47.8

Please look up its IC50: CN(c1ccccc1)c1ccc(C=c2s/c(=C(/C#N)C(=O)C(C)(C)C)n(Cc3ccco3)c2=O)cc1 2.01

Please look up its IC50: CC(C)C1N=C2c3ccccc3N=C(SCC(=O)c3ccc(O)c(O)c3)N2C1=O (stereo unspecified) 0.59

Please look up its IC50: O=C(NC1CCCCC1)c1sc(=S)n2c1[nH]c(=O)c1ccccc12 0.645

Please look up its IC50: c1ccc(Cc2nn3c(Cn4cnc5ccccc54)nnc3s2)cc1 2.2

Please look up its IC50: Nc1c(C(=O)N2CCOCC2)sc(=S)n1-c1ccccc1 4.97

Please look up its IC50: CCOC(=O)c1sc(=S)n2c1[nH]c(=O)c1ccc(C(=O)OC)cc12 0.648

----------
Quick list: pIC50 per entry.
# TARGET: Gag-Pol polyprotein (Human immunodeficiency virus type 1 group M subtype B (isolate HXB2))
# PROTOCOL DESCRIPTION: HIV-1 RT RNase H inhibitor potency, dose response, biochemical, probe assessment (AID 652)
# MEASUREMENT PARAMETERS: pH 8; 23 °C
Recall that pIC50 is obtained by taking minus log10 of the concentration measured in molar.

Given the entry O=C(NCCc1ccccc1)c1c(O)n2c3c(cccc3c1=O)CC2 , what pIC50 was observed with Gag-Pol polyprotein (Human immunodeficiency virus type 1 group M subtype B (isolate HXB2))? 5.00

Given the entry CCOC(=O)Cc1csc(-n2sc3ccccc3c2=O)n1 , what pIC50 was observed with Gag-Pol polyprotein (Human immunodeficiency virus type 1 group M subtype B (isolate HXB2))? 6.22

Given the entry Cc1ccc(NC(=O)CSc2nnc(-c3ccc(S(=O)(=O)N4CCCC4)cc3)o2)cc1C , what pIC50 was observed with Gag-Pol polyprotein (Human immunodeficiency virus type 1 group M subtype B (isolate HXB2))? 4.91

Given the entry O=C(NC(=O)c1ccc(Cl)cc1)Nc1cc(N2CCCCC2)ncn1 , what pIC50 was observed with Gag-Pol polyprotein (Human immunodeficiency virus type 1 group M subtype B (isolate HXB2))? 5.07

Given the entry CC(C)CN(C(=O)COC(=O)c1ccc2c(c1)NC(=O)CS2)C1CCS(=O)(=O)C1 (stereo not given) , what pIC50 was observed with Gag-Pol polyprotein (Human immunodeficiency virus type 1 group M subtype B (isolate HXB2))? 4.52

---
Given the entry Cc1nn(CCC#N)c2c1P(=S)(N1CCCC1)OC(c1ccc(F)cc1)=N2 (stereo not given) , what pIC50 was observed with Gag-Pol polyprotein (Human immunodeficiency virus type 1 group M subtype B (isolate HXB2))? 6.06

Given the entry Cc1ccc2c(SCC(=O)NCc3ccco3)nc(-c3ccc(F)cc3)nc2c1 , what pIC50 was observed with Gag-Pol polyprotein (Human immunodeficiency virus type 1 group M subtype B (isolate HXB2))? 5.48

Given the entry Cc1sc2nc(C(C)Nc3ccccc3N3CCOCC3)[nH]c(=O)c2c1C (stereo not given) , what pIC50 was observed with Gag-Pol polyprotein (Human immunodeficiency virus type 1 group M subtype B (isolate HXB2))? 4.84

Given the entry Cc1cc(C)cc(OCC(=O)Nc2nonc2NC(=O)COc2cc(C)cc(C)c2)c1 , what pIC50 was observed with Gag-Pol polyprotein (Human immunodeficiency virus type 1 group M subtype B (isolate HXB2))? 5.72

Given the entry CCc1ccccc1N1CSC2=C(C#N)C(c3cc(OC)c(OC)cc3OC)CC(=O)N2C1 (stereo not given) , what pIC50 was observed with Gag-Pol polyprotein (Human immunodeficiency virus type 1 group M subtype B (isolate HXB2))? 5.54

Given the entry CCC(C)Sc1nc2c(c(=O)[nH]c(=O)n2C)n1CC(O)COc1cccc2ccccc12 (stereo not given) , what pIC50 was observed with Gag-Pol polyprotein (Human immunodeficiency virus type 1 group M subtype B (isolate HXB2))? 5.40
